Each recorded value in this set is attributed to ChEMBL document CHEMBL2086252.

System: Rattus norvegicus
experimentSummary: Neurotoxicity in pilocarpine-induced status epilepticus Sprague-Dawley albino rat model assessed as minimal motor impairment at 100 mg/kg, ip after 0.25 hr by rotarod test
Type: toxicity, organism-based
Parameters: dose 100 mg/kg, route intraperitoneal
studyConditions: in vivo
recordedMetric: Activity

In the examples that follow, each entry is paired with its recorded Activity.
# compound, recordedMetric, reported
rows = [
    ("CC1(C)C(COC(N)=O)C1(C)C", "Activity", "Toxic"),
    ("CC(C)(C)CCOC(N)=O", "Activity", "Non-toxic"),
    ("CCCC(CCC)COC(=O)NC", "Activity", "Toxic"),
    ("CCC(C)C(COC(N)=O)C(C)C (racemic)", "Activity", "Toxic"),
    ("CCC(C)C(CC)COC(N)=O (racemic)", "Activity", "Toxic"),
]

Activity value, target or system Rattus norvegicus, for CC(C)(C)COC(N)=O : Non-toxic

Reported Rattus norvegicus Activity for item CCC(C)CCOC(N)=O (racemic) was Toxic

CCCC(COC(N)=O)C(C)C (racemic) on Rattus norvegicus gives Activity = Toxic

For CC(C)C(C)COC(N)=O (racemic) on Rattus norvegicus, measured Activity was Non-toxic

Activity value, target or system Rattus norvegicus, for CCCC(COC(N)=O)C(C)CC (racemic) : Toxic
